condition.summary: in isopropanol, 318.15 K

# input.smiles, solubility (mole fraction)
data = [
    ("O=C(O)c1ccc(Cl)cc1Cl", 0.0944),
]

###

condition.summary: in n-propanol, 313.15 K
metric.name: solubility (mole fraction)

# input.smiles, metric.name, experimental.result
data = [
    ("O=C(O)c1ccc(Cl)cc1Cl", "solubility (mole fraction)", 0.0763),
]

###

condition.summary: in methanol, 318.15 K

# input.smiles, solubility (mole fraction)
records = [
    ("O=C(O)c1ccc(Cl)cc1Cl", 0.0673),
]

###

condition.summary: in acetone, 283.15 K

# input.smiles, solubility (mole fraction)
records = [
    ("O=C(O)c1ccc(Cl)cc1Cl", 0.0394),
]
